- Target or test system: IL16_3, Q14005
- Sequence (Q14005 1107-1207): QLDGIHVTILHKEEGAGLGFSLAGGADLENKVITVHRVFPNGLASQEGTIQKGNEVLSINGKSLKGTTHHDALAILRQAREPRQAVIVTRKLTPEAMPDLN
- Run description: holdup assay
- Set-up: key: below the threshold = too weak to quantify, mostly under pKd 3.1 to 4
- Measurement conditions: plain residues with an end cap or a label only (N-terminal biotin on a linker: ado-ado)
Measurement kind: pKd

Read the entry QKNKDKEYYV [NRXN3_rs746444206, Q9Y4C0] and write its reported pKd. below the threshold

Tell me its pKd given GFGEERESIL [KIDINS220, Q9ULH0] as the entry. below the threshold

Return value of pKd for input TETASVCTKV [SLC23A1, Q9UHI7] , no commentary. below the threshold

Name the recorded pKd of the binder listed here: FVHPILQSAV [PRKCA, P17252] below the threshold
